- protocol-details: Toxicity in Albino Swiss mouse infected with Plasmodium berghei ANKA assessed as mortality rate at 30 mg/kg, po administered for 4 consecutive days measured for 14 days relative to control
- Format: organism-based
- assay-setup: in vivo, time 14 day, read-out: Activity

# smiles-code, unit-string, mortality at 336 h
rows = [
    ("COc1ccc(-c2cn(CCNC3=CC(=O)c4ccccc4C3=O)nn2)cc1", "%", 20),
    ("Cc1ccc(-c2cn(CCNC3=CC(=O)c4ccccc4C3=O)nn2)cc1", "%", 100),
]

* * *

- protocol-details: Toxicity in Albino Swiss mouse infected with Plasmodium berghei ANKA assessed as animal survival at 30 mg/kg, po administered for 4 consecutive days measured for 14 days relative to control
- Format: organism-based
- assay-setup: in vivo, time 14 day

# smiles-code, survival at 336 h
measured = [
    ("O=C1C=C(NCCn2cc(C3(O)CCCCC3)nn2)C(=O)c2ccccc21", "100%"),
]
